Each recorded value in this set is attributed to patent US12558424B2.

Method description: PK AUC after IV and PO dosing
Condition summary: in vivo; PO 50 mg/kg; read-out: PO 50 mg/kg AUC
Catalogue of AUC readings, one per entry.
Value expressed in µg·h/mL; do not type the unit.

>>> measurement("Cc1ccc(C#Cc2cc(-c3nn(-c4nc(C(=O)O)cs4)c(CC4CC4)c3Cc3ccc(S(N)(=O)=O)c(F)c3)ccc2F)s1 [Compound 390006]")
31.4

Continue with the next compound.
Entry Cc1ccc(C#Cc2cccc(-c3nn(-c4nc(C(=O)O)cs4)c(CC4CC4)c3Cc3ccc(S(N)(=O)=O)c(F)c3)c2)s1 [Compound 420737] — recorded AUC = 53.4
